Biological target: Dual specificity protein phosphatase 3 (Homo sapiens)
Test: Inhibition of VHR (unknown origin) at 100 uM
parameter.measured: inhibition (%)

smiles.representation	unit.descriptor	inhibition
CC(C)=CCc1cc([C@]23Oc4cc(O)c(CC=C(C)C)cc4C(=O)[C@H]2[C@H]2c4ccc(O)cc4O[C@@H]4Oc5c(ccc(O)c5CC=C(C)C)[C@@]42O3)ccc1O	%	50

A: CC(C)=CCc1c(O)ccc2c1O/C(=C\c1ccc(O)c(O)c1)C2=O
B: COc1c(CC=C(C)C)c(O)cc(O)c1-c1oc2cc(O)ccc2c1C
Q. // max by inhibition over [ A , B ] Kindly state the label of the option you pick.
A. A
(A: 50%, B: 35%)
